- Test system: Candida albicans
- TEST: Antifungal activity against fluconazole -resistant Candida albicans CaR assessed as fungal growth inhibition measured after 72 hrs by double dilution method
- Format: functional
MIC50 listing for selected compounds.
Write down the numeric answer in µg/mL and omit the unit.

{"columns": ["COMPOUND", "TARGET ENTITY", "PROPERTY MEASURED", "MEAS VALUE"],
 "data": [
  ["CC(C)OC(=O)[C@@H](Cn1cncn1)NC(=O)[C@@H](C)c1cccc(C(=O)c2ccccc2)c1", "Candida albicans", "MIC50", 4]
]}

I am curious: what MIC50 value has been reported for CC(C)NC(=O)[C@@H](Cn1ccnc1)NC(=O)[C@@H](C)c1cccc(C(=O)c2ccccc2)c1 ?
1

Returns the measured MIC50 for the input compound. Input: COc1ccc2cc([C@H](C)C(=O)NC(Cn3cncn3)C(=O)c3ccccc3)ccc2c1 (stereo not given in full)
1

// MIC50 lookup, key: CC(=O)N1CCN(c2ccc(OCC3COC(Cn4ccnc4)(c4ccc(Cl)cc4Cl)O3)cc2)CC1 (stereo not given)
4

---

- TARGET ENTITY: Prostaglandin G/H synthase 2 (Homo sapiens)
- Sequence (P35354 whole entry): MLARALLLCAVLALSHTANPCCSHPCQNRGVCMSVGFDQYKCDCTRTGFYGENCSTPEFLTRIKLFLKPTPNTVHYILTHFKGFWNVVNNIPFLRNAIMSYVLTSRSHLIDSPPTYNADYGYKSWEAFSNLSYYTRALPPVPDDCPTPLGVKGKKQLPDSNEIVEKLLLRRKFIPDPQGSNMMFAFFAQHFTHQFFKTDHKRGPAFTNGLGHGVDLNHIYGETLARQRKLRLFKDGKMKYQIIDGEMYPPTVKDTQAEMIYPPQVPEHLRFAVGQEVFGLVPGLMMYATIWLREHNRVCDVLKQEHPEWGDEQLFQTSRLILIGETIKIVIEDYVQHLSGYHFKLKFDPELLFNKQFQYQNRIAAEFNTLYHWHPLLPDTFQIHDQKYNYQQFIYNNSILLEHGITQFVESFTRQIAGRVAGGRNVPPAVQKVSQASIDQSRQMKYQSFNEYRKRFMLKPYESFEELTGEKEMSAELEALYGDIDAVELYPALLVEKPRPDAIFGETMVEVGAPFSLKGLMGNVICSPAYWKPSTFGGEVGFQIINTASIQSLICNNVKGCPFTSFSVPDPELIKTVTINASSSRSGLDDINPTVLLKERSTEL
- TEST: Inhibition of COX-2 (unknown origin) using arachidonic acid as substrate preincubated for 10 mins followed by substrate addition and measured after 2 mins by immunoassay
Overview of reported IC50 across a group of compounds:
Give your result as the value with the unit written after it.

Some compounds with known IC50 results, for comparison:
{"columns": ["COMPOUND", "MEAS VALUE"],
 "data": [
  ["CC(C)NC(=O)[C@@H](Cn1ccnc1)NC(=O)[C@@H](C)c1cccc(C(=O)c2ccccc2)c1", "3.02 µM"],
  ["CC(C)OC(=O)[C@@H](Cn1cncn1)NC(=O)[C@@H](C)c1cccc(C(=O)c2ccccc2)c1", "3.41 µM"],
  ["COc1ccc2cc([C@H](C)C(=O)O)ccc2c1", "2.39 µM"]
]}

Okay, now this compound:
So what does the record say about IC50 for COc1ccc2cc([C@H](C)C(=O)NC(Cn3cncn3)C(=O)c3ccccc3)ccc2c1 (some centres undefined) ?
1.96 µM

---

- Test system: Cryptococcus neoformans
- TEST: Antifungal activity against Cryptococcus neoformans ZKCC 2209 assessed as fungal growth inhibition measured after 72 hrs by double dilution method
- Type: functional
Examples of molecules with documented MIC50 follow.
Please respond with the number in µg/mL and leave the unit unwritten.

Recorded MIC50, per entry:
{"columns": ["SMILES", "MIC50 (µg/mL)"],
 "data": [
  ["COC(=O)[C@@H](Cn1cncn1)NC(=O)[C@@H](C)c1ccc2cc(OC)ccc2c1", 0.25],
  ["COc1ccc2cc([C@H](C)C(=O)N[C@H](Cn3ccnc3)C(=O)NC(C)C)ccc2c1", 0.5]
]}

Could you share which MIC50 value was measured for CC(C)NC(=O)[C@@H](Cn1ccnc1)NC(=O)[C@@H](C)c1ccc(-c2ccccc2)c(F)c1 ?
0.5
